biological target: Adrenergic β2 (H292 cells) (Homo sapiens, UniProt P07550); construct: endogenous in cells; host or cells: H292 cells; experiment: Adrenergic β2 Mediated cAMP Production, single concentration 1 μM; assay type: cell-based; settings: NCI-H292, 1 μM compound, percentage of the maximum response generated by 1E-07M formoterol, read-out: β2 (% effect at 1 μM)
Sequence (P07550 whole entry): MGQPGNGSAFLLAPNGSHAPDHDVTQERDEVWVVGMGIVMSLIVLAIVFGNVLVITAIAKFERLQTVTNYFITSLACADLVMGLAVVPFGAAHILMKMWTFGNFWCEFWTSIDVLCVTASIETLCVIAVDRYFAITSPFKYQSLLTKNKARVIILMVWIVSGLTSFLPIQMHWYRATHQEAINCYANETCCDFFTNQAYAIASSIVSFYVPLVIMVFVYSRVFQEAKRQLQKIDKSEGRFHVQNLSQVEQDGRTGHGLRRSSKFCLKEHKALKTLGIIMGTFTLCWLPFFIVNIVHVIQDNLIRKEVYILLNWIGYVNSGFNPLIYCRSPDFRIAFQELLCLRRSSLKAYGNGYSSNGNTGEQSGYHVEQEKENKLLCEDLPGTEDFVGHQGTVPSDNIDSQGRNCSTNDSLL
Please go through the items and note down their activation at 1 µM.
# number only, unit % dropped from output

Fill blank: measured activation at 1 µM of the molecule Cc1cc(C(=O)N2CCOC3(CCN(CCCCCCCCCNC[C@H](O)c4ccc(O)c5[nH]c(=O)sc45)CC3)C2)c(C)s1 is ____.
98

Fill blank: measured activation at 1 µM of the molecule Cc1ccsc1C(=O)N1CCOC2(CCN(CCCCCCCCCNC[C@H](O)c3ccc(O)c4[nH]c(=O)sc34)CC2)C1 is ____.
82

Fill blank: measured activation at 1 µM of the molecule Cc1cc(C(=O)N2CCOC3(CCN(Cc4cc(F)cc(CCNC[C@H](O)c5ccc(O)c6[nH]c(=O)sc56)c4)CC3)C2)c(C)s1 is ____.
100

Fill blank: measured activation at 1 µM of the molecule Cc1nc2cc(C(=O)N3CCOC4(CCN(Cc5cc(F)cc(CCNC[C@H](O)c6ccc(O)c7[nH]c(=O)sc67)c5)CC4)C3)ccc2n1C is ____.
91

Sourced from patent US8148373B2
